System: S. aureus DSM 20231;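 further: first quartile when negative (synergy) and third quartile when positive (antagonism)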
assay.remarks: Bliss interaction score (quartile over a dose matrix) (fitness difference); higher = more antagonism (negative = synergy)
quantity: Bliss interaction score

compound | test.target | readout.number
O=C(O)c1cn(C2CC2)c2cc(N3CCNCC3)c(F)cc2c1=O [Ciprofloxacin] + CN[C@H](CC(C)C)C(=O)N[C@H]1C(=O)N[C@@H](CC(N)=O)C(=O)N[C@H]2C(=O)N[C@H]3C(=O)N[C@H](C(=O)N[C@H](C(=O)O)c4cc(O)cc(O)c4-c4cc3ccc4O)[C@H](O)c3ccc(c(Cl)c3)Oc3cc2cc(c3O[C@@H]2O[C@H](CO)[C@@H](O)[C@H](O)[C@H]2O[C@H]2C[C@](C)(N)[C@H](O)[C@H](C)O2)Oc2ccc(cc2Cl)[C@H]1O [Vancomycin] | S. aureus DSM 20231 | 0.0479
C[C@H]1c2cccc(O)c2C(=O)C2=C(O)[C@]3(O)C(=O)C(C(N)=O)=C(O)[C@@H](N(C)C)[C@@H]3[C@@H](O)[C@@H]21 [Doxycycline] + C[C@@H](O)[C@H]1C(=O)N2C(C(=O)O)=C(SCCNC=N)C[C@H]12 [Imipenem] | S. aureus DSM 20231 | -0.0172
COc1cccc2c1C(=O)c1c(O)c3c(c(O)c1C2=O)C[C@@](O)(C(=O)CO)C[C@@H]3O[C@H]1C[C@H](N)[C@H](O)[C@H](C)O1 [Doxorubicin] + CC[C@H]1OC(=O)[C@H](C)[C@@H](O[C@H]2C[C@@](C)(OC)[C@@H](O)[C@H](C)O2)[C@H](C)[C@@H](O[C@@H]2O[C@H](C)C[C@H](N(C)C)[C@H]2O)[C@](C)(O)C[C@@H](C)C(=O)[C@H](C)[C@@H](O)[C@]1(C)O [Erythromycin] | S. aureus DSM 20231 | 0.0463
O=C(O)c1cn(C2CC2)c2cc(N3CCNCC3)c(F)cc2c1=O [Ciprofloxacin] + C[C@H]1c2cccc(O)c2C(=O)C2=C(O)[C@]3(O)C(=O)C(C(N)=O)=C(O)[C@@H](N(C)C)[C@@H]3[C@@H](O)[C@@H]21 [Doxycycline] | S. aureus DSM 20231 | 0.0661
N#CC(C#N)=NNc1cccc(Cl)c1 [CCCP] + C[C@H]1COc2c(N3CCN(C)CC3)c(F)cc3c(=O)c(C(=O)O)cn1c23 [Levofloxacin] | S. aureus DSM 20231 | -0.0231
COc1ccc(C[C@H](N)C(=O)N[C@H]2[C@@H](O)[C@H](n3cnc4c(N(C)C)ncnc43)O[C@@H]2CO)cc1 [Puromycin] + COc1cc(Cc2cnc(N)nc2N)cc(OC)c1OC [Trimethoprim] | S. aureus DSM 20231 | 0.113
N#CC(C#N)=NNc1cccc(Cl)c1 [CCCP] + CN(N=O)C(=O)N[C@@H](C=O)[C@@H](O)[C@H](O)[C@H](O)CO [Streptozotocin] | S. aureus DSM 20231 | -0.0689
C[C@@H]1O[C@@H]1P(=O)(O)O [Fosfomycin] + CN1C2=CC=CC=C2N=C3C1=CC=CC3=O [Pyocyanin] | S. aureus DSM 20231 | 0.0453
CC(=O)Oc1ccccc1C(=O)O [Acetylsalicylicacid] + CC(=O)O[C@H]1C[C@@]2(C)[C@@H](C[C@@H](O)[C@H]3[C@@]4(C)CC[C@@H](O)[C@@H](C)[C@@H]4CC[C@@]32C)/C1=C(\CCC=C(C)C)C(=O)O [Fusidic acid] | S. aureus DSM 20231 | 0.0354
C[C@@H]1O[C@@H]1P(=O)(O)O [Fosfomycin] + CCC[C@@H]1C[C@@H](C(=O)N[C@@H]([C@H]2O[C@H](SC)[C@H](O)[C@@H](O)[C@H]2O)[C@@H](C)O)N(C)C1 [Lincomycin] | S. aureus DSM 20231 | -0.158
CO/N=C(\C(=O)N[C@@H]1C(=O)N2C(C(=O)O)=C(COC(C)=O)CS[C@H]12)c1csc(N)n1 [Cefotaxime] + COc1ccc(C[C@H](N)C(=O)N[C@H]2[C@@H](O)[C@H](n3cnc4c(N(C)C)ncnc43)O[C@@H]2CO)cc1 [Puromycin] | S. aureus DSM 20231 | 0.0471
CN(C)[C@@H]1C(O)=C(C(N)=O)C(=O)[C@@]2(O)C(O)=C3C(=O)c4c(O)ccc(Cl)c4[C@@](C)(O)[C@H]3C[C@@H]12 [Clortetracycline] + CN[C@H](CC(C)C)C(=O)N[C@H]1C(=O)N[C@@H](CC(N)=O)C(=O)N[C@H]2C(=O)N[C@H]3C(=O)N[C@H](C(=O)N[C@H](C(=O)O)c4cc(O)cc(O)c4-c4cc3ccc4O)[C@H](O)c3ccc(c(Cl)c3)Oc3cc2cc(c3O[C@@H]2O[C@H](CO)[C@@H](O)[C@H](O)[C@H]2O[C@H]2C[C@](C)(N)[C@H](O)[C@H](C)O2)Oc2ccc(cc2Cl)[C@H]1O [Vancomycin] | S. aureus DSM 20231 | -0.0315
CO/N=C(\C(=O)N[C@@H]1C(=O)N2C(C(=O)O)=C(COC(C)=O)CS[C@H]12)c1csc(N)n1 [Cefotaxime] + C[C@H]1COc2c(N3CCN(C)CC3)c(F)cc3c(=O)c(C(=O)O)cn1c23 [Levofloxacin] | S. aureus DSM 20231 | -0.0398
N#CC(C#N)=NNc1cccc(Cl)c1 [CCCP] + CC(=O)O[C@H]1C[C@@]2(C)[C@@H](C[C@@H](O)[C@H]3[C@@]4(C)CC[C@@H](O)[C@@H](C)[C@@H]4CC[C@@]32C)/C1=C(\CCC=C(C)C)C(=O)O [Fusidic acid] | S. aureus DSM 20231 | 0.0429
COc1cccc2c1C(=O)c1c(O)c3c(c(O)c1C2=O)C[C@@](O)(C(=O)CO)C[C@@H]3O[C@H]1C[C@H](N)[C@H](O)[C@H](C)O1 [Doxorubicin] + O=C1CN(/N=C/c2ccc([N+](=O)[O-])o2)C(=O)N1 [Nitrofurantoin] | S. aureus DSM 20231 | -0.0576
